Data provenance is patent EP1144369B1.

target.or.system: TNF-α converting enzyme (TACE) (Homo sapiens)
Sequence (P78536 215-824, species assumed): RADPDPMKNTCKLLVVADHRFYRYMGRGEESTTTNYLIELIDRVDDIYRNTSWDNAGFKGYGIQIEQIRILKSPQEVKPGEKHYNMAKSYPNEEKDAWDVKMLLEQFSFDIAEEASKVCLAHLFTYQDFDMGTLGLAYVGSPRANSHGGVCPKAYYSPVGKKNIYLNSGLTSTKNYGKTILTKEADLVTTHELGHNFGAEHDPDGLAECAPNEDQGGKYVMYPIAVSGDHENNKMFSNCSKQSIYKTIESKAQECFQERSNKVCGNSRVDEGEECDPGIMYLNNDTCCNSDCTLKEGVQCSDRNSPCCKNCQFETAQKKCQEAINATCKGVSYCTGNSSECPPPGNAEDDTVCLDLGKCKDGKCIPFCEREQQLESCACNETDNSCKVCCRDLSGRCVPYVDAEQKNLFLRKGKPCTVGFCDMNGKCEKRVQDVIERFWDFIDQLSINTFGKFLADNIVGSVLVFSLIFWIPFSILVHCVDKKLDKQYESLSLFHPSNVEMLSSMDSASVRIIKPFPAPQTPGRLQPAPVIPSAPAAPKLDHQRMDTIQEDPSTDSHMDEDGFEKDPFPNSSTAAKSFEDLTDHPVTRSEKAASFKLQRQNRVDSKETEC
experimental.details: TACE inhibition (fluorescent peptidyl substrate)
Assay type: biochemical
experimental.setup: read-out: IC50 (nM) or % Inhibition (µM) TACE
Description: Using 96-well black microtiter plates, each well receives a solution composed of 10 µL TACE (final concentration 1µg/mL), 70µL Tris buffer, pH 7.4 containing 10% glycerol (final concentration 10 mM), and 10 µL of test compound solution in DMSO (final concentration 1µM, DMSO concentration <1%) and incubated for 10 minutes at room temperature. […] The reaction is read (excitation 340 nm, emission 420 nm) for 10 min. and the increase in fluorescence over time is plotted as a linear line. […]
Just a reminder that ties go to n: only IC50 strictly below 50 nM counts as y.

Observe how each entry below is paired with its result.
1) CCCC#CCOc1ccc(S(=O)(=O)N(C)c2c(C)cc(Br)cc2C(=O)NO)cc1 : y
2) COCC#CCOc1ccc(S(=O)(=O)N(C)c2c(C)cc(Br)cc2C(=O)NO)cc1 : y
3) Cc1cc(Br)cc(C(=O)NO)c1N(C)S(=O)(=O)c1ccc(OCC#CCN2CCCC2)cc1 : n

Here is another molecule to look at.
Does this molecule meet the criterion IC50 < 50 nM? Cc1cc(Br)cc(C(=O)NO)c1N(C)S(=O)(=O)c1ccc(OCC#CCOC2CCCCO2)cc1 (stereo not shown)
y
